system.tested: C3 purified from fresh human plasma (human, UniProt P01024 23-1663)
Sequence (P01024 23-1663): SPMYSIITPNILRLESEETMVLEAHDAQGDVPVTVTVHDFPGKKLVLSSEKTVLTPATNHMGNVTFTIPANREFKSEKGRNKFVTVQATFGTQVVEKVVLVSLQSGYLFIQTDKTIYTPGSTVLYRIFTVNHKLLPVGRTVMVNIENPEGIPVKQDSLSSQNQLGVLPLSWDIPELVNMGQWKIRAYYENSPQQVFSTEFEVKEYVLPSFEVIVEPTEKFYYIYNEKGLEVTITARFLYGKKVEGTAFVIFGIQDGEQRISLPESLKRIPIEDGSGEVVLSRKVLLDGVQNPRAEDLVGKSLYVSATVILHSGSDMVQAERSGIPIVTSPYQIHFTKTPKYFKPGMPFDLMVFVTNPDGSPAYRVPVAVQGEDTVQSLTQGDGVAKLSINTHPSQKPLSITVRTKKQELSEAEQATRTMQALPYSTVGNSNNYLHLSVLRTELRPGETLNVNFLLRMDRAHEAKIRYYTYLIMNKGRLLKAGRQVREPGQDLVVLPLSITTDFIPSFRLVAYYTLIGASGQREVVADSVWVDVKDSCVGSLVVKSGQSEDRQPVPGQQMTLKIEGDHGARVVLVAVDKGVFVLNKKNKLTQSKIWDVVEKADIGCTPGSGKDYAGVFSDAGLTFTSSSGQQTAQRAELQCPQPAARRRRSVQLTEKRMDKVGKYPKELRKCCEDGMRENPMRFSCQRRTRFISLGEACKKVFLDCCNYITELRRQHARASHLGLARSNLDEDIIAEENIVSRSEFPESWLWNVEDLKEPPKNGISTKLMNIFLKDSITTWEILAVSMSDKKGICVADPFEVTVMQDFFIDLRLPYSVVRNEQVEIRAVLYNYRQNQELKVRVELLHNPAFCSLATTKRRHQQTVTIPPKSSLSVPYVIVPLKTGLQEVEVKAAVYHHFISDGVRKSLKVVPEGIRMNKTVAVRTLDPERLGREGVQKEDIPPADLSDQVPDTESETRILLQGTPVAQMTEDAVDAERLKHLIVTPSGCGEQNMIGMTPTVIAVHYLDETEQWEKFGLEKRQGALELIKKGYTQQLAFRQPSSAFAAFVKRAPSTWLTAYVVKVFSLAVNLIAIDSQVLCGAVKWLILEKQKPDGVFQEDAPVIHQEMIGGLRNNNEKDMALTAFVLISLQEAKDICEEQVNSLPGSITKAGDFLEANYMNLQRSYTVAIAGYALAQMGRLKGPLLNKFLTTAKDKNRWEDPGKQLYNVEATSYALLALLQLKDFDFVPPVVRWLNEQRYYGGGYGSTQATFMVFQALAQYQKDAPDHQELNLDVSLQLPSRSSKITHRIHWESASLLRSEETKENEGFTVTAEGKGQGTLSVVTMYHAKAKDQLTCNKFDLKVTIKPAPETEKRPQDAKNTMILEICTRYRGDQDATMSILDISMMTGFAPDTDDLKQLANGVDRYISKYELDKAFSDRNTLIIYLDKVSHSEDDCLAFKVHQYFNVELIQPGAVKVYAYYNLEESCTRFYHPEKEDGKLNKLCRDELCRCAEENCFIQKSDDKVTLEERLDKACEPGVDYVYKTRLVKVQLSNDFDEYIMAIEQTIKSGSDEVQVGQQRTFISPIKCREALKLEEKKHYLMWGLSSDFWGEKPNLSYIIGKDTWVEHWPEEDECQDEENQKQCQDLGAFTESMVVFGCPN
method.description: cell-based or functional assay
Bridge positions count the residues as written; N and C are the ends. Square brackets hold non-standard residues; d marks the D form. Trp(1-Me) = Cn1cc(C[C@H](N)C(=O)O)c2ccccc21; Sar = CNCC(=O)O
readout.type: rP, relative potency compared to peptide 14 (fold)
Give just the numeric value; fold need not be written.

[Q] Record request: rP, relative potency compared to peptide 14 value, item Ac-ICV[Trp(1-Me)]QDW[Sar]AHRCL-NH2 (disulfide 2-12; SMILES CC[C@H](C)[C@H](NC(C)=O)C(=O)N[C@H]1CSSC[C@@H](C(=O)N[C@@H](CC(C)C)C(N)=O)NC(=O)[C@H](CCCNC(=N)N)NC(=O)[C@H](Cc2c[nH]cn2)NC(=O)[C@H](C)NC(=O)CN(C)C(=O)[C@H](Cc2c[nH]c3ccccc23)NC(=O)[C@H](CC(=O)O)NC(=O)[C@H](CCC(N)=O)NC(=O)[C@H](Cc2cn(C)c3ccccc23)NC(=O)[C@H](C(C)C)NC1=O) [Ac-Ic[CV(1-MeW)QDW(N-MeG)AHRC]L-NH2]
[A] 1.9
